STUDY_SYSTEM: DENV-2 protease (Dengue virus type 2)
Construct: expression plasmids pQE30-NS2BH(QR)-NS3pro and WNV clone 107, respectively; made in house; host or cells: E. coli TOP10F' cells
Sequence (P14340 1476-1653): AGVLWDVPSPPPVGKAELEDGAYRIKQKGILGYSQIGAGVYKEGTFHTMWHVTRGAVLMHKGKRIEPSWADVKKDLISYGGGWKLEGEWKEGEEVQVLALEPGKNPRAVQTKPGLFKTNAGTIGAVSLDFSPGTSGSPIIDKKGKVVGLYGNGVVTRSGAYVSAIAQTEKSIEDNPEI
METHOD_SUMMARY: In vitro protease assay, DENV-2 NS2B-NS3pro
Format: biochemical, Dengue virus serotype 2
STUDY_CONDITIONS: 25 μM inhibitor; read-out: % Inhib. DENV 2 Protease at 25 μM
Reported inhibition at 25 µM is given for each of the following compounds.

Observe how each entry below is paired with its result.
COMPOUND: O=c1c(Oc2ccccc2)c(C(F)(F)F)oc2c(O)c(O)ccc12
STUDY_SYSTEM: DENV-2 protease (Dengue virus type 2)
inhibition at 25 µM: 82%
//
COMPOUND: Cc1ccc(C(=O)c2cc(O)c(O)c([N+](=O)[O-])c2)cc1 [Compound VI, Tolcapone, reference compound]
STUDY_SYSTEM: DENV-2 protease (Dengue virus type 2)
inhibition at 25 µM: 92%
//
COMPOUND: CCOC(=O)c1oc2c(O)c(O)ccc2c(=O)c1-c1cnn(-c2ccccc2)c1
STUDY_SYSTEM: DENV-2 protease (Dengue virus type 2)
inhibition at 25 µM: 86%

### Prompt Determine from records and report inhibition at 25 µM for O=C(OC[C@H]1OC(OC(=O)c2cc(O)c(O)c(OC(=O)c3cc(O)c(O)c(O)c3)c2)C(OC(=O)c2cc(O)c(O)c(OC(=O)c3cc(O)c(O)c(O)c3)c2)[C@@H](OC(=O)c2cc(O)c(O)c(OC(=O)c3cc(O)c(O)c(O)c3)c2)C1OC(=O)c1cc(O)c(O)c(OC(=O)c2cc(O)c(O)c(O)c2)c1)c1cc(O)c(O)c(OC(=O)c2cc(O)c(O)c(O)c2)c1 (stereo partly shown) [Compound VII, Tannic acid, reference compound]
### Response 101%
